- assayed target: T1, Fc-IHH (human, UniProt P01857-1 104-330 = IgG part, I253A; H310A; H435A)
- T1 construct: domain: Fc fragment; IHH = I253A H310A H435A (EU numbering); also called IgG1-Fc-IHH
- assay protocol: SPR (IBIS MX96), FcγR captured on sensor, Fc fragment titrated, pH 7.4, equilibrium 1:1 fit

- binder: "human FcγRIIb (receptor, UniProt P31994 43-217, looked up, C-terminal biotin, Bought, C-terminally biotinylated; captured on a streptavidin sensor; also called hFcγRIIb) TPAAPPKAVLKLEPQWINVLQEDSVTLTCRGTHSPESDSIQWFHNGNLIPTHTQPSYRFKANNNDSGEYTCQTGQTSLSDPVHLTVLSEWLVLQTPHLEFQEGETIVLRCHSWKDKPLVKVTFFQNGKSKKFSRSDPNFSIPQANHSHSGDYHCTGNIGYTLYSSKPVTITVQAP"
  Kd: "> 2000 nM"
- binder: "human FcγRIIa-131H (receptor, UniProt P12318 34-218, looked up, C-terminal biotin, Bought, C-terminally biotinylated; captured on a streptavidin sensor) QAAAPPKAVLKLEPPWINVLQEDSVTLTCQGARSPESDSIQWFHNGNLIPTHTQPSYRFKANNNDSGEYTCQTGQTSLSDPVHLTVLSEWLVLQTPHLEFQEGETIMLRCHSWKDKPLVKVTFFQNGKSQKFSHLDPTFSIPQANHSHSGDYHCTGNIGYTLFSSKPVTITVQVPSMGSSSPMGI"
  Kd: "> 2000 nM"
- binder: "human FcγRIIIb-NA2 (receptor, UniProt O75015 17-200, looked up, C-terminal biotin, In-house, C-terminally biotinylated; captured on a streptavidin sensor; also called hFcγRIIIb-NA2) GMRTEDLPKAVVFLEPQWYSVLEKDSVTLKCQGAYSPEDNSTQWFHNESLISSQASSYFIDAATVNDSGEYRCQTNLSTLSDPVQLEVHIGWLLLQAPRWVFKEEDPIHLRCHSWKNTALHKVTYLQNGKDRKYFHHNSDFHIPKATLKDSGSYFCRGLVGSKNVSSETVNITITQGLAVSTIS"
  Kd: "> 2000 nM"
- binder: "human FcγRIIIb-NA1 (receptor, UniProt O75015 17-200, looked up, C-terminal biotin, In-house, C-terminally biotinylated; captured on a streptavidin sensor; also called hFcγRIIIb-NA1) GMRTEDLPKAVVFLEPQWYRVLEKDSVTLKCQGAYSPEDNSTQWFHNENLISSQASSYFIDAATVDDSGEYRCQTNLSTLSDPVQLEVHVGWLLLQAPRWVFKEEDPIHLRCHSWKNTALHKVTYLQNGKDRKYFHHNSDFHIPKATLKDSGSYFCRGLVGSKNVSSETVNITITQGLAVSTIS"
  Kd: "> 2000 nM"
- binder: "human FcγRIIa-131R (receptor, UniProt P12318 34-218, looked up, C-terminal biotin, Bought, C-terminally biotinylated; captured on a streptavidin sensor) QAAAPPKAVLKLEPPWINVLQEDSVTLTCQGARSPESDSIQWFHNGNLIPTHTQPSYRFKANNNDSGEYTCQTGQTSLSDPVHLTVLSEWLVLQTPHLEFQEGETIMLRCHSWKDKPLVKVTFFQNGKSQKFSRLDPTFSIPQANHSHSGDYHCTGNIGYTLFSSKPVTITVQVPSMGSSSPMGI"
  Kd: "> 2000 nM"
